All figures here come from paper PMC3409651.

- Test system: Sult and Ugt
- assay procedure: Sult-Ugt co-reaction system
- Type: in vitro ADME
- experimental context: male, FVB, mouse, liver S9 fraction
attribute measured: half-life at 10 µM (min)
Write the value in min as a bare number.

Endpoint output: half-life at 10 µM of O=c1cc(-c2ccccc2)oc2cc(O)c(O)cc12 [6,7-diHF, 6,7-dihydroxyflavone] . Value?
21.2

* * *

- Tested on: Ugt
- assay procedure: Ugt activity measurements
- experimental context: male, FVB, mouse, liver S9 fraction, pH 7.4
attribute measured: half-life at 10 µM

Endpoint output: half-life at 10 µM of O=c1cc(-c2ccccc2)oc2cc(O)c(O)cc12 [6,7-diHF, 6,7-dihydroxyflavone] . Value?
26.8 min

* * *

Reported time stable in buffer (chemical stability) by item:
- assay procedure: Chemical stability of the tested compounds in potassium phosphate buffer
- Format: physicochemical
- experimental context: 50 mM potassium phosphate buffer (pH 7.4) at 37°C with 0.1% vitamin C

Endpoint output: time stable in buffer (chemical stability) of O=c1cc(-c2cccc(O)c2)oc2ccccc12 [3’-HF, 3’-hydroxyflavone] . Value?
30 to 90 min

* * *

- Test system: Sult
- assay procedure: Sult activity measurements
- Assay type: in vitro ADME, mouse
- experimental context: male, FVB, mouse, liver S9 fraction, pH 7.4
attribute measured: half-life at 10 µM
Include the unit right after the number.

Endpoint output: half-life at 10 µM of O=c1cc(-c2ccccc2)oc2cc(O)c(O)cc12 [6,7-diHF, 6,7-dihydroxyflavone] . Value?
4.07 h
